Target: m-Calpain (Rattus norvegicus)
Construct: m-Calpain was purified from brains of rats; from tissue; host or cells: rat brain
Sequence (Q07009 20-700 limits assumed): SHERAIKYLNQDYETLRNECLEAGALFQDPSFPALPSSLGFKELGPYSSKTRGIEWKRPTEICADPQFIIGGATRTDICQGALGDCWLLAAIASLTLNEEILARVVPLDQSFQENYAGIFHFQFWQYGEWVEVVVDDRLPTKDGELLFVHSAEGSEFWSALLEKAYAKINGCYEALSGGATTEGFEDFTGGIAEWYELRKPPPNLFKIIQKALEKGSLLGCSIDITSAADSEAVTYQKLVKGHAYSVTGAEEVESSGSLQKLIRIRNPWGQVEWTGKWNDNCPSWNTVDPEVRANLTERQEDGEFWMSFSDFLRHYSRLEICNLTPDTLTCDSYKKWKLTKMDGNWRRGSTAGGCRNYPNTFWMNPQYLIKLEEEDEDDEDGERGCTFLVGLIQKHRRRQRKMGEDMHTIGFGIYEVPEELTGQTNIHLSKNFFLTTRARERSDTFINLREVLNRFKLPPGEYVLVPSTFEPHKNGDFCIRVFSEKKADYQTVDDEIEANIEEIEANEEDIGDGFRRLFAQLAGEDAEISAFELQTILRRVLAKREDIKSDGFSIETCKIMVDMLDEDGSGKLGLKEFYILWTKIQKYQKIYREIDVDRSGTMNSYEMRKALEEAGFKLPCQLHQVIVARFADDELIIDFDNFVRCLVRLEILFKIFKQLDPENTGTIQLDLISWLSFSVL
Sequence (Q64537 whole entry partner): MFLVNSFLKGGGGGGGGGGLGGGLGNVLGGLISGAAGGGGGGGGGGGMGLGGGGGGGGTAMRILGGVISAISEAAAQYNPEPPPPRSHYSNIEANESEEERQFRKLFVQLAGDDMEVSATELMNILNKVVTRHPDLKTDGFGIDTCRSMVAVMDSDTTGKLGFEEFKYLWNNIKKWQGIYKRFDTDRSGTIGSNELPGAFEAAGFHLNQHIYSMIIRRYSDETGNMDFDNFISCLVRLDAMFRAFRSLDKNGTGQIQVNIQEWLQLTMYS
Test: Inhibitory activity against calpain (m-Calpain purified from brains of rats)
Assay type: biochemical
Settings: Inhibitory activity against calpain (Table-6)
pIC50: −log10 of the molar value.
experimental.endpoint: pIC50

Worked cases, answers included:
# molecule, quantitative.result
records = [
    ("Cc1ccc(C(=O)N[C@@H](CC(C)C)C(=O)N[C@H]2CCOC2O)cc1C (stereo partly shown)", 6.42),
    ("CC(C)C[C@H](NC(=O)OCC1c2ccccc2-c2ccccc21)C(=O)N[C@H]1CCOC1O (stereo partly shown)", 6.39),
]

(a) CC(C)C[C@H](NS(=O)(=O)c1ccccc1)C(=O)N[C@H]1CCOC1O (stereo partly shown)
(b) CC(C)C[C@H](NC(=O)OCc1ccccc1Cl)C(=O)N[C@H]1CCOC1O (stereo partly shown)
Query string: Select one. Lower pIC50: a or b Lab log: write the label of the selected item as the result.
Result string: a
(a: 6.21, b: 6.47)
